Target: Transient receptor potential cation channel subfamily A member 1 (Homo sapiens, UniProt O75762)
Sequence (O75762 whole entry): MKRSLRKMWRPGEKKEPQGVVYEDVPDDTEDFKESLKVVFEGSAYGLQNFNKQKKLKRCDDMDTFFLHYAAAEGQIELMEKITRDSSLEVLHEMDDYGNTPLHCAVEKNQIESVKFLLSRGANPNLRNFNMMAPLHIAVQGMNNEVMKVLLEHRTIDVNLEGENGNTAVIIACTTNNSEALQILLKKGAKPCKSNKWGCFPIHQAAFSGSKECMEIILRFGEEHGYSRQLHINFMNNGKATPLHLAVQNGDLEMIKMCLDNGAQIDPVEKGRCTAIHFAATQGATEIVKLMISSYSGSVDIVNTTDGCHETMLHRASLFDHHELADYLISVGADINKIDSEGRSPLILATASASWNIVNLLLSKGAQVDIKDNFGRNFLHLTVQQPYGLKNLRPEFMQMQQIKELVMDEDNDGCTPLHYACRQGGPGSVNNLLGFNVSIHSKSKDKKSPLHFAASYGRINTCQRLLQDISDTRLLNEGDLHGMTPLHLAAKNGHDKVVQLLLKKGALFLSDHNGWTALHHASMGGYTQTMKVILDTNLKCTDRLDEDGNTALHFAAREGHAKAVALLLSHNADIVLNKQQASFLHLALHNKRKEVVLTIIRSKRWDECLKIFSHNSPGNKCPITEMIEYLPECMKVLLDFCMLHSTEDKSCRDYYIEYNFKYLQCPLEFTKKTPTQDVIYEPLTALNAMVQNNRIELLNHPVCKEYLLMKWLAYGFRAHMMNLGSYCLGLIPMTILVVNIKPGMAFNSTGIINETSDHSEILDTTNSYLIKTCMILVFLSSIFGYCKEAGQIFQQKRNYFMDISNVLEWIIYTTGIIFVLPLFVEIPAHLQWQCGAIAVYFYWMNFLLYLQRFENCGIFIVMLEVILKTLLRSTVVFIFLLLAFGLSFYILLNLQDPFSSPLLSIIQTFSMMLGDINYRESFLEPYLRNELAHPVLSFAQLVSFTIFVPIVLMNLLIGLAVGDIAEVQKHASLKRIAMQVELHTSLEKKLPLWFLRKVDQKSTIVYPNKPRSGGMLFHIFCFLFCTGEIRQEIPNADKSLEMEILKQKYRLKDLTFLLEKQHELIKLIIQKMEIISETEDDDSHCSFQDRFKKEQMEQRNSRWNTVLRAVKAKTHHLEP
Experiment: Agonist activity at human TRPA1
pEC50: −log10 of the molar value.
endpoint: pEC50

entry-smiles: N#Cc1ccc(OCC2(O)CN(S(=O)(=O)c3ccc(Cl)cc3Cl)C2)cc1F
result: < 4.90
//
entry-smiles: N#Cc1ccc(OCC2(O)CCN(S(=O)(=O)c3ccc(Cl)cc3Cl)CC2)cc1
result: < 4.90

* * *

compounds and their reported pEC50
Biological target: Transient receptor potential cation channel subfamily V member 1 (Homo sapiens)
Sequence (Q8NER1 whole entry): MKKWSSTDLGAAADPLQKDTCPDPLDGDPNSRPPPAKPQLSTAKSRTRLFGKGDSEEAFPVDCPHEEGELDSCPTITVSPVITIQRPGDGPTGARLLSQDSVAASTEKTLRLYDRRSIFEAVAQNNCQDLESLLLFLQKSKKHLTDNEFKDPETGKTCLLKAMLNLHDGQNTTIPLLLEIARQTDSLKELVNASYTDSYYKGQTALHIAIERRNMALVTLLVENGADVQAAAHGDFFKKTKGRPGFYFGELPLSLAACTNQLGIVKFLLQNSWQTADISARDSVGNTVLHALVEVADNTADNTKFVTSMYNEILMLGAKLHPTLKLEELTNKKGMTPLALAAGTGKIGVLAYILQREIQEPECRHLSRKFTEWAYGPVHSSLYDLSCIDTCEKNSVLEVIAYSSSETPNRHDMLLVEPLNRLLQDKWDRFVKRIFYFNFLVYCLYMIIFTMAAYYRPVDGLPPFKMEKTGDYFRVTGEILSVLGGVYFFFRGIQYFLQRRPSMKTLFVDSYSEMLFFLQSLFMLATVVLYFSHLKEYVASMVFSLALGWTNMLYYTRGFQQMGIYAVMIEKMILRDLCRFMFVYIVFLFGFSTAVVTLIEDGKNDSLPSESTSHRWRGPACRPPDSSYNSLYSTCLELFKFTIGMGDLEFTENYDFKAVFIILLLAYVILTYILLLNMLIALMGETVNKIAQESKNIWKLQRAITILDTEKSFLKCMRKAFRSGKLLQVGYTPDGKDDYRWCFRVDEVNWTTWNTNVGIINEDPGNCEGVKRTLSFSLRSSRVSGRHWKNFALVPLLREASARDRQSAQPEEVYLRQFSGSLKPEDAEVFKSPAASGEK
Assay: Agonist activity at human TRPV1
pEC50: −log10 of the molar value.
endpoint: pEC50

entry-smiles: N#Cc1ccc(OCC2(O)CCN(S(=O)(=O)c3ccc(Cl)cc3Cl)CC2)cc1
assay-system: Transient receptor potential cation channel subfamily V member 1 (Homo sapiens)
endpoint: pEC50
result: < 4.70
--
entry-smiles: N#Cc1ccc(OCC2(O)CN(S(=O)(=O)c3ccc(Cl)cc3Cl)C2)cc1F
assay-system: Transient receptor potential cation channel subfamily V member 1 (Homo sapiens)
endpoint: pEC50
result: < 4.70

* * *

pIC50: −log10 of the molar value.
Here's what we have: pIC50 numbers for Transient receptor potential cation channel subfamily V member 1 (Homo sapiens).

entry-smiles: N#Cc1ccc(OCC2(O)CCN(S(=O)(=O)c3ccc(Cl)cc3Cl)CC2)cc1
pIC50: < 5.41
--
entry-smiles: N#Cc1ccc(OCC2(O)CN(S(=O)(=O)c3ccc(Cl)cc3Cl)C2)cc1F
pIC50: < 4.80

* * *

Molecular target: Transient receptor potential cation channel subfamily A member 1 (Homo sapiens, UniProt O75762)
pIC50: −log10 of the molar value.

entry-smiles: N#Cc1ccc(OCC2(O)CCN(S(=O)(=O)c3ccc(Cl)cc3Cl)CC2)cc1
pIC50: < 4.90

entry-smiles: N#Cc1ccc(OCC2(O)CN(S(=O)(=O)c3ccc(Cl)cc3Cl)C2)cc1F
pIC50: < 4.90

* * *

Assay: Clearance in Sprague-Dawley rat at 1 mg/kg, iv
Type: ADME, organism-based
Set-up: dose 1 mg/kg, route intravenous
Conditions: in vivo
endpoint: clearance (mL/min/kg)

entry-smiles: N#Cc1ccc(OCC2(O)CN(S(=O)(=O)c3ccc(Cl)cc3Cl)C2)cc1F
measurement-units: mL/min/kg
number: 23.5

* * *

molecules and their reported pIC50
Molecular target: Transient receptor potential cation channel subfamily V member 4 (Homo sapiens, UniProt Q9HBA0)
Sequence (Q9HBA0 whole entry): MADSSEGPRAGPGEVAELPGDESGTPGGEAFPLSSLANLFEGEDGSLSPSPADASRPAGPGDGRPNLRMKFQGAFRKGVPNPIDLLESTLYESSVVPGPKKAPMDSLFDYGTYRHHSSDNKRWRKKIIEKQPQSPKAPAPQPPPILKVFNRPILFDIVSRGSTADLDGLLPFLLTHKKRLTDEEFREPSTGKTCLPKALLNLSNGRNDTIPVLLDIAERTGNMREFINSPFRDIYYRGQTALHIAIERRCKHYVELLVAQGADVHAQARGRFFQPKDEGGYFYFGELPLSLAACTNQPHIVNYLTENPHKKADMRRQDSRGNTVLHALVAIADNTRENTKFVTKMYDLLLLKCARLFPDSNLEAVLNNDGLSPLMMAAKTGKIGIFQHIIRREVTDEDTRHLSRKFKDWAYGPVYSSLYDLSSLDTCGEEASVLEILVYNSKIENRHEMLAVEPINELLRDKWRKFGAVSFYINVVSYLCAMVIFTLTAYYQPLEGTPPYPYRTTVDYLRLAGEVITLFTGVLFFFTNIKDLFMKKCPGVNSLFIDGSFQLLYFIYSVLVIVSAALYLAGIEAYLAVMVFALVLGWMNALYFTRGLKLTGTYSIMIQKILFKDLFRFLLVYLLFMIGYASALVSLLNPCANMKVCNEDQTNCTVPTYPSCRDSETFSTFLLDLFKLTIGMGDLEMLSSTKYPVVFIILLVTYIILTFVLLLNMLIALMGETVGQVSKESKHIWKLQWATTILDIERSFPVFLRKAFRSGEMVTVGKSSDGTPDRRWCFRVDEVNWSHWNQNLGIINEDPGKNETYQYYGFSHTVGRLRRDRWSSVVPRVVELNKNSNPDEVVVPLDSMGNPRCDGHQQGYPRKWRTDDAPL
Assay: Antagonist activity at human TRPV4 expressed in CHOK1 cells assessed as inhibition of PF-04674114/GSK1016790A-induced changes in intracellular calcium level measured for 5 mins by FLIPR assay
Format: cell-based, CHO-K1
pIC50: −log10 of the molar value.
endpoint: pIC50

entry-smiles: N#Cc1ccc(S(=O)(=O)N2CC(O)(COc3ccc(C#N)c(Cl)c3)C2)c(Cl)c1
number: 8.40
//
entry-smiles: N#Cc1ccc(S(=O)(=O)N2CCC(O)(COc3ccc(C#N)c(F)c3)CC2)c(Cl)c1
number: 7.31
//
entry-smiles: N#Cc1ccc(OCC2(O)CN(S(=O)(=O)c3ccc(Cl)cc3Cl)C2)cc1F
number: 8.42
//
entry-smiles: N#Cc1ccc(S(=O)(=O)N2CCC(O)(COc3ccc(C#N)c(F)c3)CC2)c(C#N)c1
number: 7.30
//
entry-smiles: N#Cc1ccc(OCC2(O)CN(S(=O)(=O)c3ccc(Cl)cc3C#N)C2)cc1Cl
number: 8.44
//
entry-smiles: N#Cc1ccc(OCC2(O)CCN(S(=O)(=O)c3ccc(Cl)cc3Cl)CC2)cc1F
number: 7.89
//
entry-smiles: N#Cc1ccc(OCC2(O)CCN(S(=O)(=O)c3ccc(Cl)cc3Cl)CC2)cc1
number: 7.30
//
entry-smiles: N#Cc1ccc(OCC2(O)CN(S(=O)(=O)c3ccc(Cl)cc3C#N)C2)cc1F
number: 8.47
